# MEASUREMENT_TARGET: human calcium receptor (Homo sapiens, UniProt P41180)
# Construct: expressed in transfected cells
# Sequence (P41180 20-1078): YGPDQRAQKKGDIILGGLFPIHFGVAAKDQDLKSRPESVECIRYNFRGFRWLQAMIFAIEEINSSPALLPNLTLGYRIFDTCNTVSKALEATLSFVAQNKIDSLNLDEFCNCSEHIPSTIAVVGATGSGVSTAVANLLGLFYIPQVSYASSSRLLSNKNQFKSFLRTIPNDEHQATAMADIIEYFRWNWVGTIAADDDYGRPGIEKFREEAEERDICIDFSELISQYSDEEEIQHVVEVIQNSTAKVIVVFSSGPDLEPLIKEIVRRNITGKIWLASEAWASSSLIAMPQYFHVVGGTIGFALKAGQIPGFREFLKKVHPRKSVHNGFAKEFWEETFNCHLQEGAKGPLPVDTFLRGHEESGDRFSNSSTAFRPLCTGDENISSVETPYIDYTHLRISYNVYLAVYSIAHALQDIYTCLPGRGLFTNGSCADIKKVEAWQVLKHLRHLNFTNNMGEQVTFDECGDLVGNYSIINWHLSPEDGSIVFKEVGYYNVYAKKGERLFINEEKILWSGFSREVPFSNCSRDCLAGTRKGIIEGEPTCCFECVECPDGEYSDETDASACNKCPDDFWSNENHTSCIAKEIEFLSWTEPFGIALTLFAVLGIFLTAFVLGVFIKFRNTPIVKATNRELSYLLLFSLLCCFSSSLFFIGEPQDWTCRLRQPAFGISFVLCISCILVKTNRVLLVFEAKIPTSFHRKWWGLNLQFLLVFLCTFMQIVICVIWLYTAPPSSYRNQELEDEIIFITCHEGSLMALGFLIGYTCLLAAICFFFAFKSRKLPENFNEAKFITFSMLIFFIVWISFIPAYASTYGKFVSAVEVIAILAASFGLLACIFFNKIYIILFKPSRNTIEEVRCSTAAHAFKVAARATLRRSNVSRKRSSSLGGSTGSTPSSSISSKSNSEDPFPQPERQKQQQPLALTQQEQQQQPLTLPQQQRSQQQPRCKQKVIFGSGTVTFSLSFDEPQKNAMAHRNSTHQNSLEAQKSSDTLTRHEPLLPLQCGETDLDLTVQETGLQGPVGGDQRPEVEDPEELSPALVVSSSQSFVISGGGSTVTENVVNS
# EXPERIMENTAL_DETAILS: Calcium Receptor Inhibitor Assay
# Assay type: cell-based
# CONDITION_DETAILS: HEK 293 4.0–7 cells stably expressing the human calcium receptor; fluo-3; read-out: IC50 for blocking increases of intracellular Ca2+ elicited by extracellular Ca2+
pIC50: −log10 of the molar value. Counter-ions that a name gives are not always drawn.
Listed compounds paired with reported pIC50

Examples with answers:
[
  {
    "COMPOUND": "COc1ccc(CC(C)(C)NCC(O)COc2cccc3[nH]c(O)nc23)cc1 (centres unmarked)",
    "pIC50": "> 4.30"
  },
  {
    "COMPOUND": "COc1ccc(CC(C)(C)NCCCOc2ccccc2)cc1 [Compound 17, Hydrochloride]",
    "pIC50": "> 4.30"
  },
  {
    "COMPOUND": "COc1ccc(CC(C)(C)NC[C@@H](O)COc2cccc(Cl)c2Cl)cc1 [Compound 115, Hydrochloride]",
    "pIC50": "> 6.00"
  },
  {
    "COMPOUND": "COc1ccc(CC(C)(C)NCC(O)COc2ccccc2C#N)cc1 (centres unmarked) [Compound 142, Hydrochloride]",
    "pIC50": "> 6.00"
  },
  {
    "COMPOUND": "COc1ccc(CC(C)(C)NCC(O)COc2ccccc2C)cc1 (centres unmarked) [Compound 8, Hydrochloride]",
    "pIC50": "> 5.00"
  },
  {
    "COMPOUND": "COc1ccc(CC(C)(C)NC[C@@H](O)COc2ccccc2C#N)cc1 [Compound 122, Hydrochloride]",
    "pIC50": "> 6.00"
  }
]

The measured pIC50 associated with CCc1ccccc1OCC(O)CNC(C)(C)Cc1ccc(OC)cc1 (centres unmarked) [Compound 151, Hydrochloride] reads > 6.00

COc1ccc(CC(C)(C)NCC(COc2ccccc2)OC)cc1 (centres unmarked) [Compound 59, Hydrochloride] has a reported pIC50 of > 5.00

Quick note, pIC50 for CC(C)(Cc1ccc(Cl)c(Cl)c1)NC[C@@H](O)COc1c(C#N)sc2ccccc12 landed at > 6.00

---

# MEASUREMENT_TARGET: human calcium receptor (Homo sapiens, UniProt P41180)
# Construct: expressed in transfected cells
# EXPERIMENTAL_DETAILS: Calcium Receptor Inhibitor Assay
# Type: cell-based
# CONDITION_DETAILS: HEK 293 4.0–7 cells stably expressing the human calcium receptor; fluo-3; read-out: IC50 for blocking increases of intracellular Ca2+ elicited by extracellular Ca2+
pIC50: −log10 of the molar value. Counter-ions that a name gives are not always drawn.
MEASURED_QUANTITY: pIC50

[
  {
    "MOLECULE": "COc1ccc(CC(C)(C)NCC(O)COc2ccccc2)cc1 (stereo not drawn) [Compound 3, Hydrochloride]",
    "pIC50": "> 5.00"
  },
  {
    "MOLECULE": "COc1ccc(CC(C)(C)NCC(O)COc2c(Cl)cccc2Cl)cc1 (stereo not drawn) [Compound 155, Hydrochloride]",
    "pIC50": "> 5.00"
  }
]

According to the records, this molecule COc1ccc(CC(C)(C)NCC(O)COc2cccc(C(C)C)c2)cc1 (stereo not drawn) [Compound 146, Hydrochloride] displays pIC50 of > 6.00

---

# MEASUREMENT_TARGET: human calcium receptor (Homo sapiens, UniProt P41180)
# Construct: expressed in transfected cells
# EXPERIMENTAL_DETAILS: Calcium Receptor Inhibitor Assay
# Format: cell-based
# CONDITION_DETAILS: HEK 293 4.0–7 cells stably expressing the human calcium receptor; fluo-3; read-out: IC50 for blocking increases of intracellular Ca2+ elicited by extracellular Ca2+
Structures can show the parent of a compound that is named as a salt.
// reported IC50 per item

Record excerpt, results attached:
[
  {
    "COMPOUND": "COc1ccc(CC(C)(C)NCC(O)COc2ccccc2C(C)(C)C)cc1 (centres unmarked) [Compound 48, Hydrochloride]",
    "IC50": "< 10 µM"
  },
  {
    "COMPOUND": "COc1ccc(CC(C)(C)NCC(O)COc2cccc(-c3ccccc3)c2)cc1 (centres unmarked)",
    "IC50": "< 10 µM"
  },
  {
    "COMPOUND": "COc1ccc(CC(C)(C)NCC(O)COc2ccccc2F)cc1 (centres unmarked) [Compound 41, Hydrochloride]",
    "IC50": "< 10 µM"
  },
  {
    "COMPOUND": "CC(C)(Cc1ccc2ccccc2c1)NCC(O)COc1ccccc1 (centres unmarked) [Compound 120, Hydrochloride]",
    "IC50": "< 1 µM"
  },
  {
    "COMPOUND": "CCc1ccc(CC(C)(C)NCC(O)COc2ccccc2)cc1 (centres unmarked) [Compound 110, Hydrochloride]",
    "IC50": "< 10 µM"
  },
  {
    "COMPOUND": "CCOc1ccc(CC(C)(C)NCC(O)COc2ccccc2)cc1 (centres unmarked)",
    "IC50": "> 50 µM"
  },
  {
    "COMPOUND": "COc1ccc(CC(C)(C)NCC(O)COc2ccc3ccccc3c2)cc1 (centres unmarked) [Compound 35, Hydrochloride]",
    "IC50": "< 10 µM"
  },
  {
    "COMPOUND": "COc1ccc(CC(C)(C)NCC(C)(O)COc2ccccc2)cc1 (centres unmarked) [Compound 101, Hydrochloride]",
    "IC50": "< 50 µM"
  }
]

The compound COc1ccc(CC(C)(C)NCC(O)COc2ccccc2C(C)C)cc1 (centres unmarked) [Compound 153, Hydrochloride] , tested on human calcium receptor (Homo sapiens, UniProt P41180), showed IC50 of < 1 µM

Tested system human calcium receptor (Homo sapiens, UniProt P41180); IC50 recorded for COc1ccc(CC(C)(C)NCC(O)COc2ccccc2[N+](=O)[O-])cc1 (centres unmarked) [Compound 159, Hydrochloride] was < 1 µM

human calcium receptor (Homo sapiens, UniProt P41180) data for COc1ccc(CC(C)(C)NCC(O)COc2cccc(C)c2)cc1 (centres unmarked) [Compound 45, Hydrochloride] ; its IC50: < 10 µM
